experiment: small-molecule binders of probe aInhba, primary screen, biochemical, small-molecule microarray, 635/667 nm fluorescence (AID 1148); conditions: higher = more signal;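 note: score merges 667nm spot fluorescence with signal-to-noise for antibody binding to printed compounds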
Catalogue of composite z-score values
# print the numeric value only

Solved entries (count: 2):
Molecule	composite z-score
CC(C)C[C@@H]1NC(=O)C([C@@H](C)OCc2ccccc2)NC(=O)[C@@]23C(=O)N[C@@H](Cc4ccccc4)C2[C@H](C)[C@@]2(C)O[C@H]2C3/C=C/CC/C=C/CNC1=O (some centres undefined)	-0.206
CN1C(=O)C2C(C1=O)C1C=C(c3ccc(CO)cc3)C2C(c2cccs2)N1C (centres undefined)	-0.0523

### Prompt Return reported composite z-score; argument: "COC(=O)C(CC#Cc1ccc2c(c1)[C@]1(C(=O)N2)[C@H](c2ccc(O)cc2)N2[C@H](c3ccccc3)[C@H](c3ccccc3)OC(=O)[C@H]2[C@@H]1C(=O)N1CCc2cc(OC)c(OC)cc2C1)C(=O)OC"
### Response -0.101

### Prompt I have this molecule here, "CN(C)CCCNC(=O)[C@@]1(Cc2ccccc2I)c2ccccc2C(=O)N(Cc2ccccc2)[C@H]1c1ccc(CO)cc1" , and I need its recorded composite z-score.
### Response -0.471

* * *

system: Plasmodium falciparum Sir2 (PF13_0152, Sir2A); assay: pfSir2 binders on small-molecule microarrays, primary screen, biochemical, small-molecule microarray, 635 nm fluorescence (AID 1098); conditions: small-molecule microarray binding, fluorescence 635 nm; higher = more signal;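 note: score merges spot fluorescence intensity with its signal-to-noise ratio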
Decide by composite z-score: equal to or exceeding 1 means criterion met, less means criterion not met.

Use the examples below as a reference point.
Molecule	Study System	Cat
C=CCC(OC(C)=O)[C@@H]1[C@@H](N(Cc2ccc(-c3cccc(C(F)(F)F)c3)o2)C(=O)Cc2ccc(OC)cc2)c2cc(OCCCO)ccc2N1C(=O)c1ccc2ccccc2n1 (stereo partly drawn)	Plasmodium falciparum Sir2 (PF13_0152, Sir2A)	criterion not met
N#Cc1ccc(C(O)C2C=CC3C(=O)N(c4ccccc4)C(=O)C3N2Nc2ccc([N+](=O)[O-])cc2)cc1 (stereo not drawn)	Plasmodium falciparum Sir2 (PF13_0152, Sir2A)	criterion met
CN1C(=O)[C@]2(CCS(=O)(=O)c3ccccc3)N=C(c3ccc(OCCCO)cc3)O[C@@H]2c2ccccc21	Plasmodium falciparum Sir2 (PF13_0152, Sir2A)	criterion met

### Prompt Hi, just wondering whether "COc1ccc(CCNC(=O)[C@@H]2c3ccccc3C(=O)N(CC34CC5CC(CC(C5)C3)C4)[C@H]2c2ccc(CO)cc2)cc1" shows composite z-score of 1 or higher.
### Response criterion not met

### Prompt Identify whether the reported composite z-score of the following molecule is 1 or greater: "CO[C@H]1O[C@H](CO)[C@@H](OC(=O)Nc2ccc3c(c2)OCO3)[C@@H]2OC(=O)[C@@H](Cc3ccccc3)C/C=C/C[C@H](Cc3ccccc3)C(=O)O[C@@H]12"
### Response criterion not met

### Prompt Is reported composite z-score greater than or equal to 1 here: "CCCCC(=C=CC[C@@H](O)c1cccc(OCCO)c1)CCO"
### Response criterion met

### Prompt Form field: composite z-score at least 1? Entry: "CCCC[C@H]1OB(O)C[C@H]2C1=C(C)C[C@H]1C(=O)C=CC(=O)[C@H]12"
### Response criterion not met

### Prompt Kindly determine if composite z-score recorded for "O=C1N(Cc2ccccc2)c2ccccc2[C@H]2OC(c3ccc(OCCCO)cc3)=N[C@@]12Cc1ccccc1" is above or exactly 1.
### Response criterion met

* * *

assay: modulators of S6 phosphorylation in cells, primary screen, cell-based, A549, cytoblot, luminescence, serum-stimulated (AID 1158); conditions: A549 phospho-S6 cytoblot, 5 h, higher = more signal;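 note: serum-stimulated A549 lung adenocarcinoma cells; signal is phosphorylated S6 detected by cytoblot immunostaining with HRP secondary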
This section presents compounds with their documented z-score values.
Response field accepts a number only; no unit should be typed.

Would you please look over these solved cases?
Compound	Value Reported
COc1ccc(C#Cc2ccc3c(c2)[C@]2(C(=O)N3)[C@H](c3ccc(OCCO)cc3)N3[C@H](c4ccccc4)[C@H](c4ccccc4)OC(=O)[C@H]3[C@@H]2C(=O)O)cc1	1.6
CCCCC(O)C1C=CC2C(=O)NC(=O)C2N1Nc1ccccn1 (stereo not drawn)	-1.11
C=C(CCCC)C(=O)CC[C@H](OC(C)=O)c1ccccc1OCCO	1.68
C=CCC(OC(C)=O)[C@@H]1[C@@H](N(Cc2cc3ccccc3o2)C(=O)Cc2ccc(OC)cc2)c2cc(OCCCO)ccc2N1C(=O)Cc1ccc2ccccc2c1 (stereo partly drawn)	0.638
C=CC[C@@]1(C(=O)O)N=C(c2ccc(OCCCO)cc2)O[C@@H]1c1ccccc1CN=[N+]=[N-]	0.842
COC(=O)c1ccc([C@H](NC(=O)c2ccccc2)[C@]2(C)C[C@H]2C2CCCCC2)cc1	0.0094
CN(C)CCCC[C@@H]1NC(=O)[C@@H]2C[C@H](C(=O)NCCCCCCNC(=O)CS)[C@H](c3cccc(OCCO)c3)N2C1=O	1.91
COC(=O)C(CC#Cc1ccc2c(c1)[C@]1(C(=O)N2)[C@H](c2ccc(O)cc2)N2[C@H](c3ccccc3)[C@H](c3ccccc3)OC(=O)[C@H]2[C@@H]1C(=O)N1CCc2cc(OC)c(OC)cc2C1)C(=O)OC	-0.747

### Prompt Recorded z-score of "[N-]=[N+]=NCc1ccccc1C[C@]1(C(=O)N2CCOCC2)N=C(c2ccc(OCCCO)cc2)O[C@H]1c1ccccc1CN=[N+]=[N-]" , please.
### Response 1.02

### Prompt Requested read-out: z-score. Entry: "C=CCOC(=O)[C@H]1[C@@H]2C(=O)O[C@@H](c3ccccc3)[C@@H](c3ccccc3)N2[C@@H](c2ccc(OCCOC(=O)[C@H]3C[C@H]4C(=O)NCC(=O)N4[C@H]3c3ccc(O)cc3)cc2)[C@]12C(=O)Nc1ccc(I)cc12"
### Response 0.839

### Prompt Fill in the blank: the reported z-score of CCC(CC)C(O)C1C=CC2C(=O)N(C)C(=O)C2N1N1CCCCC1 (stereo not drawn) is ____.
### Response -1.17

### Prompt Using the record for CCCCN1CC=CC23O[C@@H]4C=CCOC(=O)[C@@H]4[C@H]2C(=O)N(C(CO)C(C)C)[C@@H]3C1=O (stereo partly drawn) , report its z-score.
### Response -0.272

### Prompt Return reported z-score; argument: "COCCOC(=O)N1C(=O)[C@@]2(c3cc(C#CC4(O)CCCCCC4)ccc31)[C@H](c1ccc(OCCO)cc1)N1[C@H](c3ccccc3)[C@H](c3ccccc3)OC(=O)[C@H]1[C@@H]2C(N)=O"
### Response -0.485

### Prompt Reported z-score for CCCCCCCCCCC(O)C1C=CC2C(=O)N(C)C(=O)C2N1N1CCCCC1 (stereo not drawn) : what is it?
### Response -1.58

* * *

Listing of recorded composite z-score by entry.
test: small-molecule microarray binders of probe aWnt5a, primary screen, biochemical, biotinylated probe, 635/667 nm fluorescence (AID 1113); settings: higher = more signal;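 note: score merges 667 nm fluorescence intensity with signal-to-noise per printed feature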
Lab note: write the figure by itself, no unit.

Answered cases to consult:
Molecule	Readout Type	Value Reported
COC(=O)[C@@]1(Cc2ccc(OC)cc2)[C@H]2c3cc(C(=O)N4CCCC4)n(CCc4ccc(OC)c(Br)c4)c3C[C@H]2CN1C(=O)c1ccccc1	composite z-score	-0.0519
C=C(CCCC)C(=O)CC[C@H](OC(C)=O)c1ccccc1OCCO	composite z-score	-0.0182
CC(c1ccccc1)C(O)C1C=CC2C(=O)N(c3ccccc3)C(=O)C2N1Nc1ccc(C#N)cc1 (configuration not stated)	composite z-score	0.216
C=CC[C@]1(C(=O)NCc2ccccc2)COC(c2ccc(OCCCO)cc2)=N1	composite z-score	0.0293
COc1ccc([Si](C)(C)[C@H]2[C@H](CC(=O)N3Cc4ccccc4C[C@H]3CO)O[C@@]3(C(=O)N(Cc4cccc(N5C(=O)c6cccc7cccc5c67)c4)c4ccccc43)[C@@H]2C)cc1	composite z-score	-0.0316

### Prompt What value of measured composite z-score is listed for "COCCOC(=O)N1C(=O)[C@@]2(c3cc(C#CC4(O)CCCCCC4)ccc31)[C@H](C(=O)NC[C@H](O)c1ccccc1)[C@H]1C(=O)O[C@H](c3ccccc3)[C@H](c3ccccc3)N1[C@@H]2c1ccc(O)cc1" ?
### Response 0.0718

### Prompt Consider the molecule C=CCC(OC(C)=O)[C@@H]1[C@@H](N(Cc2ccc(-c3cccc(C(F)(F)F)c3)o2)C(=O)c2cccc3ccccc23)c2cc(OCCCO)ccc2N1C(=O)c1ccc2ccccc2c1 (some centres not stated) and give its measured composite z-score.
### Response -0.108

* * *

experiment: E. coli growth modulation, two-sided OD650, primary screen, E. coli filamentation project, strain DRC41, 24 h (AID 1093); conditions: OD650, 24 h, higher = more signal, called active from +8 up or from −8 down;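 note: MC1000 strain lacking acrAB efflux and sulA so SOS filamentation is blocked; test concentration not given here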
Lab note: compare z-score against 0.5. Equal or greater, write class 1. Smaller, write class 0.

Example entries and their recorded answers appear below.
Compound	Cat
C=CC[C@@]1(C(=O)O)N=C(c2ccc(OCCCO)cc2)O[C@@H]1c1ccccc1CN=[N+]=[N-]	class 1
C=CCC(OC(C)=O)[C@@H]1[C@@H](N(Cc2cc3ccccc3o2)C(=O)Cc2ccc(OC)cc2)c2cc(OCCCO)ccc2N1C(=O)Cc1ccc2ccccc2c1 (some centres undefined)	class 0
O=c1cccc(-c2ccccc2C(F)(F)F)o1	class 0

Switching to the query record.
### Prompt Check the entry COC(=O)C1(CC(C)C)C=C2C(=C(C(C)C)C(=O)C2C)CN1 (centres undefined) : does z-score equal or exceed 0.5?
### Response class 0
